Just for reference, patent EP1984353B1 is where these values come from.

Molecular target: AuroraA-TPX2 (Homo sapiens, UniProt O14965)
Construct: 20 µL of AuroraA-TPX2 KD GST; GST
Sequence (O14965 133-383 limits assumed): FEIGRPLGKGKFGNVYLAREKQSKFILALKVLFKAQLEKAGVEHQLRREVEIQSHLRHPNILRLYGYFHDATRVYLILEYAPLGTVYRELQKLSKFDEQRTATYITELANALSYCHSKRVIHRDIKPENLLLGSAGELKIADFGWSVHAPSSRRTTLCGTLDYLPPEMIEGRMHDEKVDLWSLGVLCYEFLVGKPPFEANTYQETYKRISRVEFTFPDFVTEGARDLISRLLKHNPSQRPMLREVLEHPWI
Sequence (Q9ULW0 1-43 partner limits assumed): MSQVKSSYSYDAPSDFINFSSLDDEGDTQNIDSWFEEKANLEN
Assay: AuroraA-TPX2 Homogeneous Time Resolved Fluorescent (HTRF) kinase assay
Format: biochemical
Conditions: average; given as numbers, unit inferred; read-out: AurA/TP X2_ IC50_IP (Avg)
pIC50: −log10 of the molar value.
property-label: pIC50

C[C@H]1CN(CCCNc2nccc(-c3cccnc3Oc3ccc(Nc4nnc(-c5ccccc5)c5ccccc45)cc3)n2)[C@@H](C)CO1 | 7.19
Cc1ccc(-c2nnc(Nc3ccc(Oc4ncccc4-c4c[nH]nc4N)cc3)c3ccccc23)cc1 | 8.26
Cc1ccc(-c2nnc(Nc3ccc(Oc4ncccc4-c4ccnc(N)n4)cc3)c3ccccc23)nc1 | 8.33
Nc1nccc(-c2cccnc2Oc2ccc(Nc3nnc(-c4ccccc4)c4ccoc34)cc2)n1 | 7.52
Nc1nccc(-c2cccnc2Oc2ccc(Nc3nnc(-c4ccccc4OP(=O)(O)O)c4ccccc34)cn2)n1 | 5.80
COc1cccc(OC)c1-c1nnc(Nc2ccc(Oc3ncccc3-c3ccnc(N)n3)cc2)c2ccccc12 | 5.63
Cc1csc(-c2nnc(Nc3ccc(Oc4ncccc4-c4ccnc(N)n4)nc3)c3ccccc23)c1 | 8.28
Cc1cc(-c2nnc(Nc3ccc(Oc4ncccc4-c4ccnc(N)n4)cc3)c3ccccc23)sn1 | 7.80
Cc1csc(-c2nnc(Nc3ccc(Oc4ncccc4-c4ccnc(N)n4)cc3)c(C)c2C)c1 | 8.23
Cc1csc(-c2cnc(Nc3ccc(Oc4ncccc4-c4ccnc(N)n4)cc3)c3ccccc23)c1 | 7.46

1 = CS(=O)(=O)c1cccc(-c2nnc(Nc3ccc(Oc4ncccc4-c4ccnc(N)n4)nc3)c3ccccc23)c1
2 = c1ccc(-c2nnc(Nc3ccc(Oc4ncccc4-c4ccnc5c4CCN5)cc3)c3ccccc23)cc1
Ask: Exercise: compare 1 and 2 ; which one has the greater pIC50? Write the label of whichever entry you select.
Result: 1

a = CNc1nccc(-c2cccnc2Oc2ccc(Nc3nnc(-c4ccccc4)c4ccccc34)nc2)n1
b = Nc1n[nH]cc1-c1cccnc1Oc1ccc(Nc2nnc(-c3ccccc3)c3ccsc23)cc1
Ask: Which of the two items, a and b , has the greater recorded pIC50? Select an item and report its label.
Result: b
(b: 7.79, a: 6.83)

P = Nc1nccc(-c2cccnc2Oc2ccc(Nc3nnc(C4CCCCC4)c4ccccc34)cc2)n1
Q = Nc1n[nH]cc1-c1cccnc1Oc1ccc(Nc2nnc(-c3ccccc3)c3ccccc23)cc1F
Ask: Which value of pIC50 is numerically greater: that of P or that of Q ? # respond with the chosen item's label
Result: Q

P = c1ccc(-c2nnc(Nc3ccc(Oc4ccccc4-c4ccncc4)cc3)c3ccccc23)cc1
Q = Nc1nccc(-c2cccnc2Oc2ccc(Nc3nnc(N4CCCC(O)C4)c4ccccc34)cc2)n1 (stereo not drawn)
R = Nc1nccc(-c2cccnc2Oc2ccc(Nc3ncc(-c4ccccc4)c4ccccc34)cc2)n1
Ask: Put the items in sequence by pIC50, from largest down. Give me the labels in the order the question wants.
Result: R, Q, P
